Each record here notes measured %Inh.
system: ALK; details: concentration: 1 μM, replicates: in singlicate; n = 1;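 note: KINOMEscan kinase panel screen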
# value in %; strip the unit string

Before answering, review these 4 worked examples.
>>> value_reported("Fc1ccc(-c2nc3n(c2-c2ccncc2)CCS3)cc1 [GI98581]")
28
>>> value_reported("O=c1cc(N2CCOCC2)nc2n(Cc3cccc(Cl)c3Cl)c3ccccc3n12 [GSK2299009]")
25
>>> value_reported("Cc1ccc(NC(=O)Nc2ccc(Cl)c(C(F)(F)F)c2)cc1-c1ccc(C(=O)Nc2ccncc2)cc1 [GSK1398470]")
0
>>> value_reported("CNc1nc(-c2ccc3c(N)n[nH]c3c2)cc(N2C[C@@H](C(=O)Nc3ccccc3)CC[C@H]2C)n1 [GSK2298859]")
3

Asked: Reported %Inh, compound Fc1ccc(-c2nn3cccc(F)c3c2-c2ccncc2)cc1 [GW475620] : ____
Given back: 16

Asked: Consider the compound shown here: CC(C)c1ccc(O)cc1Nc1ccnc2ccc(C(F)(F)F)cc12 [GW482059] What is its recorded %Inh?
Given back: 15

Asked: Returns the measured %Inh for the input compound. Input: CCn1c(-c2c(N)noc2C)nc2cnccc21 [SB-737856]
Given back: 35

Asked: Query: %Inh; subject: O=C(Nc1n[nH]c2nc(-c3ccco3)c(Br)cc12)C1CCN(Cc2ccccc2)C1.O=C(O)[C@H](O)[C@@H](O)C(=O)O (stereo not drawn) [SB-742034]
Given back: 5

Asked: Which %Inh is listed for O=C(Nc1n[nH]c2cc(-c3ccsc3)ccc12)C1CC1 [SB-732932] ?
Given back: 9

---

system: ITK; conditions: concentration: 1 μM, replicates: in singlicate; n = 1
%Inh less than 10% is Condition met; %Inh greater than or equal to 10% is Condition not met.

# count of solved cases: 4
>>> class_assignment("CC(=O)c1c(C)c2cnc(Nc3ccc(N4CCNCC4)cn3)nc2n(C2CCCC2)c1=O")
"Condition met"
>>> class_assignment("O=C(Nc1n[nH]c2cc(-c3ccsc3)ccc12)C1CC1 [SB-732932]")
"Condition met"
>>> class_assignment("Cc1c(Cn2c3ccccc3n3c(=O)cc(N4CCOCC4)nc23)cccc1C(F)(F)F [GSK2306394]")
"Condition not met"
>>> class_assignment("Cc1c(Cn2c(C)c(C)n3c(=O)cc(N4CCOCC4)nc23)cccc1C(F)(F)F [GSK2328680]")
"Condition not met"

Consider the record given below.
Asked: Confirm or reject: %Inh of "COc1ccc(CSc2nnc(-c3ccc4ncsc4c3)o2)cc1C(F)(F)F" lies strictly below 10%
Given back: Condition met

---

system: RSK4(Kin.Dom.2-C-terminal); construct: gene RPS6KA6; conditions: concentration: 1 μM, replicates: in singlicate; n = 1
OBSERVABLE: %Inh
Answer as a quantity: numeral, then unit.

Look over these answered cases.
>>> value_reported("CCc1ccc(-c2ccc3c(c2)-c2n[nH]cc2S(=O)(=O)N3C)cc1")
"20%"
>>> value_reported("COc1cccc(NC(=O)Nc2ccc(C)c(-c3ccc(C(=O)Nc4ccncc4)cc3)c2)c1")
"22%"

Asked: # get_value(readout='%Inh', item= "COc1ccc(Nc2nccc(-c3ccc(NC(=O)c4cc5cc(F)ccc5[nH]4)cc3)n2)cc1" )
Given back: 6%

Asked: I'd like to know its %Inh. The molecule in question is "CNc1nc(-c2ccc3c(N)n[nH]c3c2)cc(N2C[C@@H](C(=O)NC3CCCCC3)OC[C@H]2C)n1"
Given back: 20%

Asked: Give its %Inh value. Item: "Fc1ccc(-c2nc3n(c2-c2ccncc2)CCS3)cc1"
Given back: 88%

Asked: // lookup %Inh for "COc1cc2ncnc(Nc3cccc(Br)c3)c2cc1OC.Cl"
Given back: 15%

Asked: Can you share its %Inh? I mean this molecule: "O=c1cc(N2CCOCC2)nc2n(Cc3cccc(Cl)c3Cl)c3ccccc3n12"
Given back: 5%

Data credit: paper PMC5540273
